The measured values listed here are drawn from PubChem BioAssay (NCI).

# method_description: NCI Yeast Anticancer Drug Screen. Data for the sgs1 mgt1 strain (AID 161);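 further: 0% = growth of cultures given vehicle only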
# test_settings: S. cerevisiae sgs1 mgt1 strain, at 50.0 µM, hits give high values
Compounds without any hit were thinned out: in the full panel of roughly 79,000, 15% have a hit.
Each entry below carries its reported growth inhibition.
quantity_measured: growth inhibition (%)

[[record]]
compound = "CN(C)N=Nc1ccccc1"
quantity_measured = "growth inhibition"
reported = 0

[[record]]
compound = "COC(=O)C1(CC(=O)CC(=O)CC2(C(=O)OC)NC(=S)NC(=O)C2C#N)NC(=S)NC(=O)C1C#N (stereo unspecified)"
quantity_measured = "growth inhibition"
reported = -24.6

[[record]]
compound = "C1CCC(C2CCCC2)CC1"
quantity_measured = "growth inhibition"
reported = -13

[[record]]
compound = "CC(=O)Nc1c(C)cc(C)cc1[N+](=O)[O-]"
quantity_measured = "growth inhibition"
reported = -12.9

[[record]]
compound = "O=C1OC(=O)C2C1C1(Cl)CC2(Cl)C(Cl)=C1Cl (stereo unspecified)"
quantity_measured = "growth inhibition"
reported = 2

[[record]]
compound = "CC(=O)OCC1OC(Oc2cccc(C=C(C(C)=O)C(C)=O)c2)C(OC(C)=O)C(OC(C)=O)C1OC(C)=O (stereo unspecified)"
quantity_measured = "growth inhibition"
reported = 6.65

[[record]]
compound = "N#Cc1ccccc1C#N"
quantity_measured = "growth inhibition"
reported = -7.7

[[record]]
compound = "O=C(O)C1=C(C(=O)O)C2CCCC3C4CCCCC4N(N1)C23 (stereo unspecified)"
quantity_measured = "growth inhibition"
reported = -20.4

[[record]]
compound = "COc1cc(S(=O)(=O)O)ccc1N=N/C(=N\\Nc1ccc(S(=O)(=O)O)cc1OC)C(N)=O"
quantity_measured = "growth inhibition"
reported = 8.9

[[record]]
compound = "CC1=C(C(=O)Nc2c(C)cccc2C)C(c2ccccc2Cl)C(C(=O)Nc2c(C)cccc2C)=C(C)N1"
quantity_measured = "growth inhibition"
reported = -27.4

[[record]]
compound = "CC(=O)O[C@@H]1[C@H]2[C@@H](OC(=O)c3ccccc3)[C@@H](C)C[C@]2(O)[C@H](OC(C)=O)[C@@]2(C)[C@@H]3C[C@@](C)(OC(C)=O)C[C@@H](OC(C)=O)[C@@]3(OC(C)=O)C[C@@]12C"
quantity_measured = "growth inhibition"
reported = -3.8


###

# method_description: NCI Yeast Anticancer Drug Screen. Data for the rad50 strain (AID 155);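 further: 0% = growth of vehicle-only cultures of the same strain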
# test_settings: S. cerevisiae rad50 strain growth inhibition; at 50.0 µM; hits give high values
This is part of a sample that, as a whole, favours compounds with a hit. Of some 79,000 tested, about 15% had one in any assay.
quantity_measured: growth inhibition (%)

[[record]]
compound = "Cc1c(-c2ccc3c(c2)COC3)sc(N)c1C#N"
quantity_measured = "growth inhibition"
units_symbol = "%"
reported = 4.7

[[record]]
compound = "CC(=O)NN"
quantity_measured = "growth inhibition"
units_symbol = "%"
reported = -5.25

[[record]]
compound = "NCC(=O)Nc1ccc(Cl)cc1C(=O)c1ccc[nH]1"
quantity_measured = "growth inhibition"
units_symbol = "%"
reported = 1.4

[[record]]
compound = "COc1cc(C(=O)Nc2ccc(S(=O)(=O)Nc3nc(C)cc(C)n3)cc2)cc(OC)c1OC"
quantity_measured = "growth inhibition"
units_symbol = "%"
reported = -10.7

[[record]]
compound = "Nc1nc(N)c(N=Nc2cc(Cl)c([N+](=O)[O-])cc2Cl)c(=O)[nH]1"
quantity_measured = "growth inhibition"
units_symbol = "%"
reported = 13.2

[[record]]
compound = "COc1ccccc1NC(=O)Nc1ccccc1"
quantity_measured = "growth inhibition"
units_symbol = "%"
reported = 1.9

[[record]]
compound = "O=C(O)c1cc(C(=O)Nc2cccc3ccccc23)c(C(=O)O)cc1C(=O)Nc1cccc2ccccc12"
quantity_measured = "growth inhibition"
units_symbol = "%"
reported = 14.6

[[record]]
compound = "[Cu+2].[NH-]C(CC(=O)O)C(=O)O.[NH-]C(CC(=O)O)C(=O)O (configuration not stated)"
quantity_measured = "growth inhibition"
units_symbol = "%"
reported = -35.3

[[record]]
compound = "O=C1C2=C(CCC2)C(=O)N1c1ccc(N2C(=O)C3=C(CCC3)C2=O)cc1"
quantity_measured = "growth inhibition"
units_symbol = "%"
reported = -12.6

[[record]]
compound = "C[N+](C)(C)c1ccc(C(N)C(=O)O)cc1 (configuration not stated)"
quantity_measured = "growth inhibition"
units_symbol = "%"
reported = -7.7

[[record]]
compound = "COc1cc2c(c(O)c1C)C(=O)CC(c1ccccc1)O2 (configuration not stated)"
quantity_measured = "growth inhibition"
units_symbol = "%"
reported = 15.4

[[record]]
compound = "CC(=O)OCC1OC(c2ccccc2)C/C(=N/O)C1OC(C)=O (configuration not stated)"
quantity_measured = "growth inhibition"
units_symbol = "%"
reported = 90.8


###

Each entry below carries its reported growth inhibition.
# method_description: NCI Yeast Anticancer Drug Screen. Data for the cln2 rad14 strain (AID 165);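 further: 0% = growth equal to vehicle treated cultures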
# test_settings: S. cerevisiae cln2 rad14 strain, at 50.0 µM, hits give high values
# Description: Growth inhibition of yeast strains with defined genetic alterations is measured as a screen for potential anti-cancer activity. Selected strains with alterations in DNA damage repair or cell cycle control were exposed to compounds and growth inhibition was measured relative to vehicle treated controls. The strain used in this assay is cln2 rad14
This is part of a sample that, as a whole, favours compounds with a hit. Of some 79,000 tested, about 15% had one in any assay.
quantity_measured: growth inhibition (%)

[[record]]
compound = "O=C(CNc1c(Cl)cccc1Cl)NC1C=Cc2ccc(S(=O)(=O)Nc3c(Cl)cccc3Cl)cc2C1=O (configuration not stated)"
reported = 5.35

[[record]]
compound = "Cc1ccc(S(=O)(=O)C(CC(=O)O)c2ccccc2)cc1 (configuration not stated)"
reported = 4.15

[[record]]
compound = "NC(=O)C1CCc2ccccc2C1 (configuration not stated)"
reported = 3

[[record]]
compound = "CCOC(=O)/C(=C/O)NC(=O)c1ccccc1"
reported = -18.9

[[record]]
compound = "Cc1cccc2c1ccc1ccccc12"
reported = -9

[[record]]
compound = "O=S(=O)(Cl)c1cccc2c(S(=O)(=O)Cl)cccc12"
reported = -40.5

[[record]]
compound = "C=CC12COC(=O)CC1CCC(=O)C2 (configuration not stated)"
reported = -19.4

[[record]]
compound = "Cn1c2ccccc2c2ccc3c(c21)C(=O)NC3=O"
reported = -7.7

[[record]]
compound = "CN(C)C(CN)CC1=C(CC(CN)N(C)C)CCC1 (configuration not stated)"
reported = -1

[[record]]
compound = "NCc1c(C(N)=O)ncn1Cc1ccccc1"
reported = -4.15

[[record]]
compound = "CC1=C(C(=O)NCc2ccccc2)C(c2ccco2)C(C(=O)NCc2ccccc2)=C(C)N1"
reported = -13.3

[[record]]
compound = "COC(=O)C1=CO[C@@H](C)[C@@H]2Cn3ccc4c5ccccc5nc-4c3C[C@H]12"
reported = 4.5


###

Each entry below carries its reported growth inhibition.
# method_description: NCI Yeast Anticancer Drug Screen. Data for the mec2-1 strain (AID 157)
# test_settings: S. cerevisiae mec2-1 strain, at 50.0 µM, hits give high values
The panel holds about 79,000 compounds, 15% with a hit somewhere; the sample as a whole holds those more often.
quantity_measured: growth inhibition (%)

[[record]]
compound = "O=C(Nc1cccc(Cl)c1)Oc1cccnc1"
quantity_measured = "growth inhibition"
units_symbol = "%"
reported = -29.9

[[record]]
compound = "N#CCSCC(N)C(=O)O (configuration not stated)"
quantity_measured = "growth inhibition"
units_symbol = "%"
reported = -15.2

[[record]]
compound = "O=c1cc(CCl)nc2c3ncn(C4OC(CO)C(O)C4O)c3ncn12 (configuration not stated)"
quantity_measured = "growth inhibition"
units_symbol = "%"
reported = -16.5

[[record]]
compound = "CC(O)CC1CC(=O)CCC1=O (configuration not stated)"
quantity_measured = "growth inhibition"
units_symbol = "%"
reported = -18.1

[[record]]
compound = "CC(=O)NC1CC(=O)N(c2ccccc2)C1=O (configuration not stated)"
quantity_measured = "growth inhibition"
units_symbol = "%"
reported = 7.8

[[record]]
compound = "CCCCCCCCCCS(C)(=O)=O"
quantity_measured = "growth inhibition"
units_symbol = "%"
reported = -3.95

[[record]]
compound = "CCCCCCCCCCC1SCC(=O)N1c1nncs1 (configuration not stated)"
quantity_measured = "growth inhibition"
units_symbol = "%"
reported = 0.75

[[record]]
compound = "COc1ccc(CCNC(=O)Cc2cc(OCc3ccccc3)c(OC)cc2[N+](=O)[O-])cc1OC"
quantity_measured = "growth inhibition"
units_symbol = "%"
reported = 8.4

[[record]]
compound = "Cc1[nH]c2ccc(C(=O)NN)cc2c1CC(=O)NN"
quantity_measured = "growth inhibition"
units_symbol = "%"
reported = 8.45

[[record]]
compound = "NC(=O)NC(=O)OCCOC(=O)NC(N)=O"
quantity_measured = "growth inhibition"
units_symbol = "%"
reported = -11.7

[[record]]
compound = "O=S(=O)(O)CNc1ccc(Cl)cc1"
quantity_measured = "growth inhibition"
units_symbol = "%"
reported = -12.7

[[record]]
compound = "CC(=O)Nc1ccc2c([N+](=O)[O-])cccc2c1-c1c(NC(C)=O)ccc2c([N+](=O)[O-])cccc12"
quantity_measured = "growth inhibition"
units_symbol = "%"
reported = 10.8

